- assay-overview: MRT (0 to 48 hrs) in normal fed guinea pig at 30 mg/kg administered via oral gavage by LC-MS/MS analysis
- Format: ADME, organism-based, Cavia porcellus
- setup-conditions: in vivo
endpoint: MRT last (h)

[[record]]
compound = "CC1(C)CC[C@]2(C(=O)O)CC[C@]3(C)C(=CC[C@@H]4[C@@]5(C)CC[C@H](OC(=O)c6ccccc6C(=O)O)C(C)(C)[C@@H]5CC[C@]43C)[C@@H]2C1"
endpoint = "MRT last"
value_observed = 14.9

[[record]]
compound = "CC1(C)CC[C@]2(C(=O)O)CC[C@]3(C)C(=CC[C@@H]4[C@@]5(C)CC[C@H](O)C(C)(C)[C@@H]5CC[C@]43C)[C@@H]2C1 [OLEANOLIC_ACID]"
endpoint = "MRT last"
value_observed = 11.7


====

- assay-overview: Tmax in normal fed guinea pig at 30 mg/kg administered via oral gavage by LC-MS/MS analysis
- Format: ADME, organism-based, Cavia porcellus
- setup-conditions: in vivo
endpoint: Tmax (h)

P = CC1(C)CC[C@]2(C(=O)O)CC[C@]3(C)C(=CC[C@@H]4[C@@]5(C)CC[C@H](O)C(C)(C)[C@@H]5CC[C@]43C)[C@@H]2C1
Q = CC1(C)CC[C@]2(C(=O)O)CC[C@]3(C)C(=CC[C@@H]4[C@@]5(C)CC[C@H](OC(=O)c6ccccc6C(=O)O)C(C)(C)[C@@H]5CC[C@]43C)[C@@H]2C1
Task: For P and Q , which recorded Tmax is lower? # reply format: chosen label
Result: P
(P: 0.75 h, Q: 1.46 h)

====

- assay-overview: Cmax in normal fed guinea pig at 30 mg/kg administered via oral gavage by LC-MS/MS analysis
- Type: ADME, organism-based, Cavia porcellus
- Design: dose 30 mg/kg, route oral
- setup-conditions: in vivo
endpoint: Cmax (ng/mL)

1 = CC1(C)CC[C@]2(C(=O)O)CC[C@]3(C)C(=CC[C@@H]4[C@@]5(C)CC[C@H](O)C(C)(C)[C@@H]5CC[C@]43C)[C@@H]2C1
2 = CC1(C)CC[C@]2(C(=O)O)CC[C@]3(C)C(=CC[C@@H]4[C@@]5(C)CC[C@H](OC(=O)c6ccccc6C(=O)O)C(C)(C)[C@@H]5CC[C@]43C)[C@@H]2C1
Task: For 1 and 2 , which recorded Cmax is lower? # reply format: chosen label
Result: 1
